ASSAY SYSTEM: feline FcRn complex (FcRn-α subunit and β-microglobulin), biotin labeled (feline)
EXPERIMENT NOTES: SPR, pH 6
MEASUREMENT TYPE: pKd
// pKd is dimensionless: -log10 of concentration (M)

Requested read-out: pKd. Entry: feline IgG1a S252Y/S428M/S434L (antibody, part only; not given: Variable domains, not shown: another chain or arm of the molecule) constant: ASTTAPSVFPLAPSCGTTSGATVALACLVLGYFPEPVTVSWNSGALTSGVHTFPAVLQASGLYSLSSMVTVPSSRWLSDTFTCNVAHPPSNTKVDKTVRKTDHPPGPKPCDCPKCPPPEMLGGPSIFIFPPKPKDTLYISRTPEVTCLVVDLGPDDSDVQITWFVDNTQVYTAKTSPREEQFNSTYRVVSVLPILHQDWLKGKEFKCKVNSKSLPSPIERTISKAKGQPHEPQVYVLPPAQEELSRNKVSVTCLIKSFHPPDIAVEWEITGQPEPENNYRTTPPQLDSDGTYFVYSKLSVDRSHWQRGNTYTCSVMHEALHLHHTQKSLTQSPGK 8.16

So what's the measured pKd for this one? feline IgG1a S434Y (antibody, part only; not given: Variable domains, not shown: another chain or arm of the molecule) constant: ASTTAPSVFPLAPSCGTTSGATVALACLVLGYFPEPVTVSWNSGALTSGVHTFPAVLQASGLYSLSSMVTVPSSRWLSDTFTCNVAHPPSNTKVDKTVRKTDHPPGPKPCDCPKCPPPEMLGGPSIFIFPPKPKDTLSISRTPEVTCLVVDLGPDDSDVQITWFVDNTQVYTAKTSPREEQFNSTYRVVSVLPILHQDWLKGKEFKCKVNSKSLPSPIERTISKAKGQPHEPQVYVLPPAQEELSRNKVSVTCLIKSFHPPDIAVEWEITGQPEPENNYRTTPPQLDSDGTYFVYSKLSVDRSHWQRGNTYTCSVSHEALHYHHTQKSLTQSPGK 9.36

Query (binder): feline IgG1a S428Q (antibody, part only; not given: Variable domains, not shown: another chain or arm of the molecule; small tags and cut ends) constant: ASTTAPSVFPLAPSCGTTSGATVALACLVLGYFPEPVTVSWNSGALTSGVHTFPAVLQASGLYSLSSMVTVPSSRWLSDTFTCNVAHPPSNTKVDKTVRKTDHPPGPKPCDCPKCPPPEMLGGPSIFIFPPKPKDTLSISRTPEVTCLVVDLGPDDSDVQITWFVDNTQVYTAKTSPREEQFNSTYRVVSVLPILHQDWLKGKEFKCKVNSKSLPSPIERTISKAKGQPHEPQVYVLPPAQEELSRNKVSVTCLIKSFHPPDIAVEWEITGQPEPENNYRTTPPQLDSDGTYFVYSKLSVDRSHWQRGNTYTCSVQHEALHSHHTQKSLTQSPGK ; field requested: pKd 7.42

Request the reported pKd associated with feline IgG1a S428V (antibody, part only; not given: Variable domains, not shown: another chain or arm of the molecule; small tags and cut ends) constant: ASTTAPSVFPLAPSCGTTSGATVALACLVLGYFPEPVTVSWNSGALTSGVHTFPAVLQASGLYSLSSMVTVPSSRWLSDTFTCNVAHPPSNTKVDKTVRKTDHPPGPKPCDCPKCPPPEMLGGPSIFIFPPKPKDTLSISRTPEVTCLVVDLGPDDSDVQITWFVDNTQVYTAKTSPREEQFNSTYRVVSVLPILHQDWLKGKEFKCKVNSKSLPSPIERTISKAKGQPHEPQVYVLPPAQEELSRNKVSVTCLIKSFHPPDIAVEWEITGQPEPENNYRTTPPQLDSDGTYFVYSKLSVDRSHWQRGNTYTCSVVHEALHSHHTQKSLTQSPGK 7.72

All values here come from patent US20240400708A1.
